- Tested on: 282377-053-R-J1-PDC complex spheroid viability;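 further: spheroids exposed to compounds for seven days; 100% = DMSO vehicle control viability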
- protocol: Anticancer human tumor 282377-053-R-J1-PDC patient-derived colon adenocarcinoma cell line growth inhibition [POLQ]
- applied.conditions: second compound 1 µM; first compound 3.16 µM; active compounds read low
readout.label: viability, T/C

>>> measured_result("C=CC(=O)N1CCN(c2nc(=O)n(-c3c(C)ccnc3C(C)C)c3nc(-c4c(O)cccc4F)c(F)cc23)C(C)C1 (stereo unspecified) + COC1C(OC(N)=O)C(O)C(Oc2ccc3c(O)c(NC(=O)c4ccc(O)c(CC=C(C)C)c4)c(=O)oc3c2C)OC1(C)C")
"89.6%"
>>> measured_result("O=C(c1cc(Cc2n[nH]c(=O)c3ccccc23)ccc1F)N1CCN(C(=O)C2CC2)CC1 + Cc1cccc(N(C)C(=O)C2C(O)CCN2c2nc(C)cc(C(F)(F)F)c2C#N)c1")
"107%"
>>> measured_result("CNCc1ccc(-c2[nH]c3cc(F)cc4c3c2CCNC4=O)cc1 + Nc1ccc(C#CCN(C(=O)Cc2ncc(C(F)(F)F)cc2C(F)(F)F)c2ccc(F)cc2)nn1")
"115%"
>>> measured_result("COc1cc2cc(C(=O)CCC(=O)O)sc2cc1OC + Nc1ccc(C#CCN(C(=O)Cc2ncc(C(F)(F)F)cc2C(F)(F)F)c2ccc(F)cc2)nn1")
"107%"
>>> measured_result("Nc1ccn(C2OC(CO)C(O)C2(F)F)c(=O)n1 (stereo unspecified) + Nc1ccc(C#CCN(C(=O)Cc2ncc(C(F)(F)F)cc2C(F)(F)F)c2ccc(F)cc2)nn1")
"81%"

IN: Supply viability, T/C value. Item: CC1COCCN1c1cc(-c2ccnn2C)c2ccnc(-c3ccn[nH]3)c2n1 (stereo unspecified) + COC1C(OC(N)=O)C(O)C(Oc2ccc3c(O)c(NC(=O)c4ccc(O)c(CC=C(C)C)c4)c(=O)oc3c2C)OC1(C)C
OUT: 27.4%
